- Assay name: Transmittance at 860 nm of the product dissolved in chloroform
- Format: physicochemical
- Assay context: 860 nm; chloroform; product/chloroform=4 mg/100 ml
Endpoint name: transmittance at 860 nm of the product in chloroform (%)

Cc1ccc(Nc2ccc(Nc3ccc(C)cc3)c3c2C(=O)c2c(Nc4ccc(C)cc4)ccc(Nc4ccc(Cl)cc4)c2C3=O)cc1
99
CCCCc1ccc(Nc2ccc(Nc3ccc(Cl)cc3)c3c2C(=O)c2c(Nc4ccc(CCCC)cc4)ccc(Nc4ccc(CCCC)cc4)c2C3=O)cc1
99.2
Cc1ccc(Nc2ccc(Nc3ccc(C)cc3)c3c2C(=O)c2c(Nc4ccc(Cl)cc4)ccc(Nc4ccc(Cl)cc4)c2C3=O)cc1
99.6
Cc1ccc(Nc2ccc(Nc3ccc(C)cc3)c3c2C(=O)c2c(Nc4ccc(C)cc4)ccc(Nc4ccc(C)cc4)c2C3=O)cc1 [Comparative Example 1, reference compound]
99
